STUDY SYSTEM: T1, HLA-A*02:01 (human)
T1 construct: MHC class I monomer of the UV-ligand exchange assay; also called peptide-receptive MHC molecules; MHC class I
EXPERIMENTAL PROTOCOL: UV peptide-exchange ELISA
ASSAY READOUT: peptide exchange yield

GIIDGSPRL    50 to 75%
YLDNVLAEL    ≥ 75%
TLLLGLTEV    50 to 75%
FIDKFTPPV    ≥ 75%
WLVGQEFEL    50 to 75%
ALPGGAAVAAV    ≥ 75%
YQLELHGIEL    ≥ 75%
GLSQANFTL    50 to 75%
FIWPMLIHI    50 to 75%
GLLRIIPYL    50 to 75%

Enquiry: What does the record list as peptide exchange yield for `KLMNDIADI` ?
Return: 20 to 50%

Enquiry: `YLQEVPILTL` , same question.
Return: ≥ 75%

Enquiry: `SLNIGDVQL` , same question.
Return: 50 to 75%

Enquiry: `ILARDILEI` , same question.
Return: 50 to 75%

Enquiry: `GIIDINVRL` , same question.
Return: 20 to 50%
